Just for reference, PubChem BioAssay (NCI) is where these values come from.

Test system: NCI-H460 lung
procedureSummary: NCI-60 one-dose screen, 48 h
measurementParameters: 10 µM unless noted
This is part of a sample that, as a whole, favours compounds with a hit. Of some 83,000 tested, about 20% had one in any assay. Calls of active or inactive are those of the source. Rule for the calls: active = growth percent below 10; inactive = the rest.
Give one outcome, nothing more. List: active, inactive

Cl.Fc1c[c-]c(-c2ccccn2)c(F)c1.[Pt].c1ccc(P(c2ccccc2)C([PH+](c2ccccc2)c2ccccc2)[PH+](c2ccccc2)c2ccccc2)cc1	active

Hello, I am checking results. What call was entered for Fc1ccc(Nc2nc3nonc3nc2Nc2ccc(F)cc2)cc1 ?
active

Hello, I am checking results. What call was entered for COc1cc2c(cc1OC)-c1ccc3cc4c(cc3c1N(CCCn1ccnc1)C2)OCO4 ?
active

Tell me the recorded outcome of this test for N=C(N)c1ccc(-c2ccc(-c3ccc(Cl)cc3Cl)o2)cc1 .
active

Please indicate how the test categorized C[C@@H](C[C@H](CCOCc1cccnc1)c1ccccc1)c1cc2ccccc2o1 .
inactive

Answer briefly: the call reported for CO/C(=C1/NC(=O)C(Cc2ccc(O)c(Br)c2)N(C)C(=O)C(C)NC(=O)CCC/C=C(\C)CCC(C)OC1=O)c1ccccc1 (stereo not given) in this assay.
active

Hi, do you know how COc1ccc2cc(-c3ccc(C(=O)NN)c(C)n3)ccc2c1 came out in this test?
inactive

Status in this test for CCNCCNc1cc(-c2ccc(C(=O)OC)cc2)c(C#N)c2nc3ccccc3n12 ?
active

So what was the verdict on CC(C)c1ccc(C(=O)OC(=O)c2ccc(C(C)C)cc2)cc1 in this test?
inactive

I would be grateful if you could indicate the recorded call for COc1ccc(/C=C2\C=C(c3ccccc3)N(CCc3ccccc3)C2=O)cc1OC .
inactive

Dear all, I need the recorded test outcome for CC(C)(C)N1CC(OC(N)=O)C1 , thank you.
inactive

For this molecule, state the assay outcome: CN(C)c1ccc(/C=C/c2c(F)cccc2F)cc1
inactive

Please share the test call associated with COc1cc2cc(Oc3ccc(NC(=O)Nc4cc(C(F)(F)F)cc(C(F)(F)F)c4)cc3)c(C)nc2cc1OCCN1CCCCC1 .
active

// param item: CCOC(=O)N1CCc2c(sc3c2C(=O)N[C@H](c2ccc(OC)cc2)N3)C1 ; yields the recorded call
inactive

Recorded call for CCN(CC)CCOC(=O)N1c2ccccc2Sc2ccccc21 ?
inactive

Give the logged outcome of this assay for the following molecule: CCn1c(Sc2nnc(Nc3ccccc3)s2)nc2c1c(=O)n(C)c(=O)n2C
inactive

I would be grateful if you could indicate the recorded call for CCN(CC)N=Nc1nn(C(=O)Nc2ccc(Cc3ccccc3)cc2)c2ccc(Cl)cc12 .
inactive

Hello, I am checking results. What call was entered for C[C@@H]1C(=O)N(C[C@H](Cc2ccccc2)N(Cc2ccccc2)Cc2ccccc2)[C@]1(Cc1ccccc1)C(=O)OC(C)(C)C ?
inactive

Recorded call for COc1ccc(/C=C(\C#N)n2nnc3cc(F)c(F)cc32)c(OC)c1OC ?
inactive

How was COc1cc2c(cc1OC)-c1ccc3cc4c(cc3c1N(CCN1CCCC1)C2)OCO4 classified in this test?
active
